system tested: NEK1 (human) (UniProt Q96PY6)
Sequence (Q96PY6 whole entry, looked up): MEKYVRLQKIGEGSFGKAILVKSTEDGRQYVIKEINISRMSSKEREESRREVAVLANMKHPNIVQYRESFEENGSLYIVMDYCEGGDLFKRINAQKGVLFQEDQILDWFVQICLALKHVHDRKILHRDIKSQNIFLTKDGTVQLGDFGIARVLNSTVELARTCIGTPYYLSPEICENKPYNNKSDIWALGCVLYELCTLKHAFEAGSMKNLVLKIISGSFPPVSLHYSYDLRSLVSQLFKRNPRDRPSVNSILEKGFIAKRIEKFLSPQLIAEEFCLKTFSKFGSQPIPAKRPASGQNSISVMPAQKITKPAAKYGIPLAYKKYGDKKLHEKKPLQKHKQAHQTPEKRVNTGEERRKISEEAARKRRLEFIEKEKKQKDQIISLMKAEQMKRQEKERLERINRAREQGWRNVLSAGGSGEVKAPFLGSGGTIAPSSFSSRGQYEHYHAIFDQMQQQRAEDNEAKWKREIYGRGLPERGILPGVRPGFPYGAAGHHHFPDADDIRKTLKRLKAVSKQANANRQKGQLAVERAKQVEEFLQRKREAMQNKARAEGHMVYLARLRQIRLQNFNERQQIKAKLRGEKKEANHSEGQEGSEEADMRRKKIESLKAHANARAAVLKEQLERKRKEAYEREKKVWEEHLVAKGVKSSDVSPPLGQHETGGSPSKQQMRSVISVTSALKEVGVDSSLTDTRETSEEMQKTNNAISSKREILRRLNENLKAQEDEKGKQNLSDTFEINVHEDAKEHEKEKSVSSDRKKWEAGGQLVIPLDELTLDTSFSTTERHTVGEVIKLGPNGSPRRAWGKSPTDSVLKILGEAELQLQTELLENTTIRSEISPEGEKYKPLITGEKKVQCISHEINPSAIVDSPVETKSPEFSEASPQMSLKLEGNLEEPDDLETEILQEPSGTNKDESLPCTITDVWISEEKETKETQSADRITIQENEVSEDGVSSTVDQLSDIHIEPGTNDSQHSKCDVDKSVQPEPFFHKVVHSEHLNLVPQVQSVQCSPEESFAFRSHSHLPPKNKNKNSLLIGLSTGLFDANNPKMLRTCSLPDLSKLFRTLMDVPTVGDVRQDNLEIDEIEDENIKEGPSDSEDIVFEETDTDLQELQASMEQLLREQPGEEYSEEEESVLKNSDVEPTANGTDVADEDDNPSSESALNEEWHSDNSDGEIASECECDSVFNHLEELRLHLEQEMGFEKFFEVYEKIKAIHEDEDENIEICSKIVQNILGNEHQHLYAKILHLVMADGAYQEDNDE
method: KINOMEscan competition binding
condition details: compound 10.0 µM
readout: kinase still bound, per cent of control (%)
Kindly answer with a numeric value in %, unit omitted.

Here's what some known entries look like.
CCN1CCN(Cc2ccc(NC(=O)c3ccc(C)c(/C=C/c4cnc5[nH]ccc5c4OC)c3)cc2C(F)(F)F)CC1: 89
CNC(=O)Nc1ccc(-c2nc(N3CC4CCC(C3)O4)c3cnn(C4CCC5(CC4)OCCO5)c3n2)cc1: 100
N#C/C(=C1/Nc2ccccc2S1)c1ccnc(NCCc2cccnc2)n1: 57
COc1ccc(N(C(=O)Oc2cc(C(=O)Nc3cccc(C(F)(F)F)c3)ccc2C)c2ccnc(Nc3ccc(N4CCN(C)CC4)cc3)n2)c(OC)c1: 100
CCc1nc(-c2cccc(C)c2)c(-c2ccnc(NC(=O)c3ccccc3)c2)s1: 90

I have this compound here, `COc1cc2c(Nc3ccc(NC(=O)c4ccccc4)cc3)ncnc2cc1OCCCN1CCOCC1` , and I need its recorded kinase still bound, per cent of control.
81

Then what about the compound CC1=C(C(=O)Nc2cc3cn[nH]c3cc2F)C(c2ccc(C(F)(F)F)cc2)CC(=O)N1 (stereo not drawn) ?
91

Moving on to the next compound: `CCCS(=O)(=O)Nc1ccc(F)c(C(=O)c2c[nH]c3ncc(Cl)cc23)c1F`
72

---

This listing pairs compounds with measured kinase still bound, per cent of control.
system tested: PRKX (human) (UniProt P51817)
Sequence (P51817 whole entry, looked up): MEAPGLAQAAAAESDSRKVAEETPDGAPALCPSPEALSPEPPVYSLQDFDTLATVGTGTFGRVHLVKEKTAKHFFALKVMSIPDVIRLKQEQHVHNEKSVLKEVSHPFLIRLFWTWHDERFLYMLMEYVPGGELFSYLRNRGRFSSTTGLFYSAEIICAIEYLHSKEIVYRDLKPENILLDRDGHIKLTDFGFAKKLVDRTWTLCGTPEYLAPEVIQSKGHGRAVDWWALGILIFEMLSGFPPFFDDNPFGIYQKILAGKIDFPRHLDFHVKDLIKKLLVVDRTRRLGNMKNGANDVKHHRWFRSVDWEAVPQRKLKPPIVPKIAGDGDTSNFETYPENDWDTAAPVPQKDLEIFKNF
method: KINOMEscan competition binding
condition details: compound 10.0 µM
Give just the number in %; leave the unit off.

Example entries and their recorded answers appear below.
CCCS(=O)(=O)Nc1ccc(F)c(C(=O)c2c[nH]c3ncc(Cl)cc23)c1F: 100
Cc1cn(-c2cc(C(=O)Nc3ccc(C)c(NC(=O)c4ccno4)c3)cc(C(F)(F)F)c2)cn1: 100
O=c1[nH]c2ccccc2n1C1CCN(Cc2ccc(-c3nc4cc5[nH]cnc5cc4nc3-c3ccccc3)cc2)CC1: 100
N#C/C(=C1/Nc2ccccc2S1)c1ccnc(NCCc2cccnc2)n1: 81
CCOc1cc(N2CCC(O)CC2)ccc1Nc1ncc2c(n1)N(C)c1ccccc1C(=O)N2C: 100

Find kinase still bound, per cent of control (PRKX (human) (UniProt P51817)) for the entry `CC(=O)c1c(C)c2cnc(Nc3ccc(N4CCNCC4)cn3)nc2n(C2CCCC2)c1=O`
90

Also check `N#Cc1cc(-c2ccnc(Nc3ccc(-n4cnc(-c5cccnc5)n4)cc3)n2)cc(N2CCOCC2)c1`
55

Same question, CC1=C(C(=O)Nc2cc3cn[nH]c3cc2F)C(c2ccc(C(F)(F)F)cc2)CC(=O)N1 (centres undefined) this time
14

Entry `CCN(CCO)CCCOc1ccc2c(Nc3cc(CC(=O)Nc4cccc(F)c4)[nH]n3)ncnc2c1` please
66

---

System: BMX (human), P51813 [V600E]
Sequence (P51813 whole entry, looked up, stated change not applied): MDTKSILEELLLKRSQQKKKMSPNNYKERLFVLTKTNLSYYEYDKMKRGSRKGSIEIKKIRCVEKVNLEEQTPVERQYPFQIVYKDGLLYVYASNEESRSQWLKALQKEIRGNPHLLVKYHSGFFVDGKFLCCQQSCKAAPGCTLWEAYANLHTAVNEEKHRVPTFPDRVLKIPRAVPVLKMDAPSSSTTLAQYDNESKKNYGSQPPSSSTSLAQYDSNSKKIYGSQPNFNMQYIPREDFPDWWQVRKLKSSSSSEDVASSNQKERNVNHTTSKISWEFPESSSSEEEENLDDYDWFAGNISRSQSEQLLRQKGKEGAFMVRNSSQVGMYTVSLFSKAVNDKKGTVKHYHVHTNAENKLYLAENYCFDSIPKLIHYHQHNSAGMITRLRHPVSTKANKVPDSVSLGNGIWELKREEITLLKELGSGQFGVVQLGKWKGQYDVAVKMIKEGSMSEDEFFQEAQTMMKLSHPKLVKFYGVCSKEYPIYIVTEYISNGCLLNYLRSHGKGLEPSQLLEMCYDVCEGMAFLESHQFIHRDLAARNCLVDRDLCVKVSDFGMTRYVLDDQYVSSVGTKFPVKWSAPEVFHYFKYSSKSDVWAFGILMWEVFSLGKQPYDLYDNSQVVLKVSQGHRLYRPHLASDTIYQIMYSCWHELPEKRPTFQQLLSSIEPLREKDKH
method: KINOMEscan competition binding
condition details: compound 10.0 µM
Response field label takes True when kinase still bound, per cent of control is strictly below 90% and False in all other cases.

Answer whether the compound `N#C/C(=C1/Nc2ccccc2S1)c1ccnc(NCCc2cccnc2)n1` has kinase still bound, per cent of control strictly less than 90%
True

---

Listed below: kinase still bound, per cent of control values for each entry.
Tested on: EGFR (human), P00533 [A750P; 747-749 del]
method: KINOMEscan competition binding
condition details: compound 10.0 µM

Previously resolved entries follow.
CNC(=O)c1ccc(Nc2cc(Nc3ccccc3S(=O)(=O)C(C)C)c3cc[nH]c3n2)nc1: 100%
O=C(O)c1ccc(Nc2ncc3c(n2)-c2ccc(Cl)cc2C(c2c(F)cccc2F)=NC3)cc1: 28%

Reported kinase still bound, per cent of control, compound `COc1cc(C(=O)NC2CCN(C)CC2)ccc1Nc1ncc2c(n1)N(C1CCCC1)CCC(=O)N2C(C)C` : ____
100%

Next compound: `CS(=O)(=O)N1CCN(Cc2cc3nc(-c4cccc5[nH]ncc45)nc(N4CCOCC4)c3s2)CC1`
100%

---

system tested: PLK1 (human)
method: KINOMEscan competition binding
condition details: compound 10.0 µM
readout: kinase still bound, per cent of control (%)
Hi! Could you send only the number? It should be in %, unit omitted.

Sample records with kinase still bound, per cent of control:
CCc1nc(-c2cccc(C)c2)c(-c2ccnc(NC(=O)c3ccccc3)c2)s1: 100
CC(=O)c1c(C)c2cnc(Nc3ccc(N4CCNCC4)cn3)nc2n(C2CCCC2)c1=O: 8.4
CCCS(=O)(=O)Nc1ccc(F)c(C(=O)c2c[nH]c3ncc(Cl)cc23)c1F: 100
N#Cc1cc(-c2ccnc(Nc3ccc(-n4cnc(-c5cccnc5)n4)cc3)n2)cc(N2CCOCC2)c1: 99
COc1cc2ncnc(Nc3cccc(Cl)c3)c2cc1OC: 92

Entry under review: CC1=C(C(=O)Nc2cc3cn[nH]c3cc2F)C(c2ccc(C(F)(F)F)cc2)CC(=O)N1 (centres undefined) . Reported kinase still bound, per cent of control?
96

`COc1cc(N2CCC(C(N)=O)CC2)ccc1Nc1nc(N)c(Cl)c(Nc2ccccc2S(=O)(=O)C(C)C)n1` ?
21

Please answer likewise for `O=c1[nH]c2ccccc2n1C1CCN(Cc2ccc(-c3nc4cc5[nH]cnc5cc4nc3-c3ccccc3)cc2)CC1`
93

Another: `CCN1CCN(Cc2ccc(NC(=O)c3ccc(C)c(/C=C/c4cnc5[nH]ccc5c4OC)c3)cc2C(F)(F)F)CC1`
100

---

system tested: CDK17 (human)
method: KINOMEscan competition binding
condition details: compound 10.0 µM
readout: kinase still bound, per cent of control

Please review the entries below; each comes with its answer.
CC1=C(C(=O)Nc2cc3cn[nH]c3cc2F)C(c2ccc(C(F)(F)F)cc2)CC(=O)N1 (stereo not drawn): 91%
COc1ccc(N(C(=O)Oc2cc(C(=O)Nc3cccc(C(F)(F)F)c3)ccc2C)c2ccnc(Nc3ccc(N4CCN(C)CC4)cc3)n2)c(OC)c1: 100%
CCc1nc(-c2cccc(C)c2)c(-c2ccnc(NC(=O)c3ccccc3)c2)s1: 99%
COc1cc(N2CCC(C(N)=O)CC2)ccc1Nc1nc(N)c(Cl)c(Nc2ccccc2S(=O)(=O)C(C)C)n1: 100%

Recorded kinase still bound, per cent of control for `CCN1CCN(Cc2ccc(NC(=O)c3ccc(C)c(/C=C/c4cnc5[nH]ccc5c4OC)c3)cc2C(F)(F)F)CC1` , please?
61%

What do you get for `Cc1cn(-c2cc(C(=O)Nc3ccc(C)c(NC(=O)c4ccno4)c3)cc(C(F)(F)F)c2)cn1` ?
100%

Next up: COc1cc(C)c(Sc2cnc(NC(=O)c3ccc(CNC(C)C(C)C)cc3)s2)cc1C(=O)N1CCN(C(C)=O)CC1 (stereo not drawn)
100%

Queued: `CCOc1cc(N2CCC(O)CC2)ccc1Nc1ncc2c(n1)N(C)c1ccccc1C(=O)N2C`
100%

// repeat for `COc1cc2ncnc(Nc3cccc(Cl)c3)c2cc1OC` and report
79%

Lookup `N#Cc1cc(-c2ccnc(Nc3ccc(-n4cnc(-c5cccnc5)n4)cc3)n2)cc(N2CCOCC2)c1`
18%

---

Entries and their kinase still bound, per cent of control values follow.
system tested: MAP4K1 (human)
method: KINOMEscan competition binding
condition details: compound 10.0 µM
Provide the measurement as a number trailed by its unit.

CCc1nc(-c2cccc(C)c2)c(-c2ccnc(NC(=O)c3ccccc3)c2)s1: 86%
CCN(CCO)CCCOc1ccc2c(Nc3cc(CC(=O)Nc4cccc(F)c4)[nH]n3)ncnc2c1: 76%
COc1cc(N2CCC(C(N)=O)CC2)ccc1Nc1nc(N)c(Cl)c(Nc2ccccc2S(=O)(=O)C(C)C)n1: 100%

For MAP4K1 (human), provide kinase still bound, per cent of control of `CCN1CCN(Cc2ccc(NC(=O)c3ccc(C)c(/C=C/c4cnc5[nH]ccc5c4OC)c3)cc2C(F)(F)F)CC1` please.
0%

Again, but for `COc1ccc(N(C(=O)Oc2cc(C(=O)Nc3cccc(C(F)(F)F)c3)ccc2C)c2ccnc(Nc3ccc(N4CCN(C)CC4)cc3)n2)c(OC)c1`
4.6%

Quick one: `CCOc1cc(N2CCC(O)CC2)ccc1Nc1ncc2c(n1)N(C)c1ccccc1C(=O)N2C`
100%

Again, but for `COc1cc2ncnc(Nc3cccc(Cl)c3)c2cc1OC`
93%

`COc1cc2c(Nc3ccc(NC(=O)c4ccccc4)cc3)ncnc2cc1OCCCN1CCOCC1` , same question.
60%

# iterate: `C=CC(=O)Nc1ccc(C(=O)c2sc(Nc3ccc(N4CCN(C)CC4)cc3OC)nc2N)cc1`
84%

Can you handle CC1=C(C(=O)Nc2cc3cn[nH]c3cc2F)C(c2ccc(C(F)(F)F)cc2)CC(=O)N1 (stereo not drawn) next?
87%

Quick one: `N#C/C(=C1/Nc2ccccc2S1)c1ccnc(NCCc2cccnc2)n1`
100%

Again, but for `CNC(=O)Nc1ccc(-c2nc(N3CC4CCC(C3)O4)c3cnn(C4CCC5(CC4)OCCO5)c3n2)cc1`
94%

Would you mind doing `N#Cc1cc(-c2ccnc(Nc3ccc(-n4cnc(-c5cccnc5)n4)cc3)n2)cc(N2CCOCC2)c1` as well?
26%

And for COc1cc(C)c(Sc2cnc(NC(=O)c3ccc(CNC(C)C(C)C)cc3)s2)cc1C(=O)N1CCN(C(C)=O)CC1 (stereo not drawn) ?
25%
